Tested on: A2780
Experiment: Cytotoxicity against ovarian carcinoma A2780/cis90 tumor cell lines
Format: functional, cell-based, Homo sapiens
pIC50: −log10 of the molar value.
Parameter: pIC50

query: Could you tell me which pIC50 is on file for CISPLATIN ?
result: < 4.10

###

Tested on: K562
Test: Cytotoxicity against chronic myelogenous leukemia K562 tumor cell lines
Assay type: functional, cell-based, Homo sapiens
Parameter: IC50

query: Tell me reported IC50 for CISPLATIN , tested with K562.
result: > 80 µM

###

System: ML-2
Assay: Cytotoxicity against acute myelogenous leukemia ML-2 tumor cell lines
Type: functional, cell-based, Homo sapiens
Parameter: IC50

query: Tell me reported IC50 for CISPLATIN , tested with ML-2.
result: > 80 µM
